Data credit: patent US10017509B2

compounds and their reported IC50
molecular target: Vps34 (PIK3C3 lipid kinase) (Homo sapiens, UniProt Q8NEB9); experiment: Biochemical Vps34 lipid kinase assay (ADP-Glo); details: serial half-log dilution 10 μM to 0.3 nM; pIC50 = -log IC50 (M)
Sequence (Q8NEB9 whole entry, species assumed): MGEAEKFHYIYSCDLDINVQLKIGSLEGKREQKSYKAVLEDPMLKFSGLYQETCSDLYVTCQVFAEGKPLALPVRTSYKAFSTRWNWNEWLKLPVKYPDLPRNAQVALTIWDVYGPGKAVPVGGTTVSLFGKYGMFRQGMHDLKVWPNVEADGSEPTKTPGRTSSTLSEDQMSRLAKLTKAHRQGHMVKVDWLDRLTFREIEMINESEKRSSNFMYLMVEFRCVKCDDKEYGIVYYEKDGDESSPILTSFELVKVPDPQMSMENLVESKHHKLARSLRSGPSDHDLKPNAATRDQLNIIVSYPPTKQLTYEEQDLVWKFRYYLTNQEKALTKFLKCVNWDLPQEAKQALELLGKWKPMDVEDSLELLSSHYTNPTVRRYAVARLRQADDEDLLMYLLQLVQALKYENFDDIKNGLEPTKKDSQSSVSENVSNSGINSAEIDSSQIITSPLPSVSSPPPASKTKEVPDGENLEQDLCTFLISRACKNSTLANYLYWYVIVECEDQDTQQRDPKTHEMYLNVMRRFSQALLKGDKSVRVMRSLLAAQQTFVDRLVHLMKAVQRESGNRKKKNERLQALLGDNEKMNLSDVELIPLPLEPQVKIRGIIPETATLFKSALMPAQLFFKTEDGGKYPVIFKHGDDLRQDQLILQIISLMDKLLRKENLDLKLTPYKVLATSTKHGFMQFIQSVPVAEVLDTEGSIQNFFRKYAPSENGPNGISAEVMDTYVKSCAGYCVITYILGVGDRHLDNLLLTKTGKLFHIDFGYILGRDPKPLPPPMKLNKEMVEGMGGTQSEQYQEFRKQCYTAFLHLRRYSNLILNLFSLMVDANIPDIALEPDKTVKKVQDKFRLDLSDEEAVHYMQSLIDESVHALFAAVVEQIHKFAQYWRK
Measured Endpoint: IC50

[[record]]
compound = "O=C1CN2CCN(Cc3cccc(c3)Nc3nccc(n3)-c3ccc(nc3)NCCCN1)C(CO)C2 (single isomer, unassigned) [Compound 48]"
test_value = "4.27e-08 M"

[[record]]
compound = "CN1CCCN(C)c2ccc(cn2)-c2ccnc(n2)Nc2cccc(c2)CN2CCN(CC1=O)CC2COCCO (single isomer, unassigned) [Compound 104]"
test_value = "3.02e-07 M"

[[record]]
compound = "O=C1CN2CCN(CC2)Cc2cccc(c2)Nc2nccc(n2)-c2ccc(nc2)N2CC(O)CC2CCN1 (single isomer, unassigned) [Compound 90]"
test_value = "2.09e-07 M"

[[record]]
compound = "CN1CCCN(C)c2ccc(cn2)-c2ccnc(n2)Nc2cccc(c2)CN2CCCN(CC2)CC1=O"
test_value = "2.95e-07 M"

[[record]]
compound = "C=CCCN1CCNC(=O)CN2CCN(CC2)Cc2cccc(c2)Nc2nccc(n2)-c2ccc(nc2)C1"
test_value = "9.55e-08 M"

[[record]]
compound = "O=C1CN2CCN(CC2)Cc2cccc(c2)Nc2nccc(n2)-c2ccc(nc2)N2CC(O)CC2CCN1 (single isomer, unassigned) [Compound 96]"
test_value = "1.32e-07 M"

